B1: SPRY domain-containing SOCS box protein 2 (Mus musculus), O88838 (parent)
chain: MGQTALARGSSSTPTSQALYSDFSPPEGLEELLSAPPPDLVAQRHHGWNPKDCSENIDVKEGGLCFERRPVAQSTDGVRGKRGYSRGLHAWEISWPLEQRGTHAVVGVATALAPLQADHYAALLGSNSESWGWDIGRGKLYHQSKGLEAPQYPAGPQGEQLVVPERLLVVLDMEEGTLGYSIGGTYLGPAFRGLKGRTLYPSVSAVWGQCQVRIRYMGERRVEEPQSLLHLSRLCVRHALGDTRLGQISTLPLPPAMKRYLLYK
partner: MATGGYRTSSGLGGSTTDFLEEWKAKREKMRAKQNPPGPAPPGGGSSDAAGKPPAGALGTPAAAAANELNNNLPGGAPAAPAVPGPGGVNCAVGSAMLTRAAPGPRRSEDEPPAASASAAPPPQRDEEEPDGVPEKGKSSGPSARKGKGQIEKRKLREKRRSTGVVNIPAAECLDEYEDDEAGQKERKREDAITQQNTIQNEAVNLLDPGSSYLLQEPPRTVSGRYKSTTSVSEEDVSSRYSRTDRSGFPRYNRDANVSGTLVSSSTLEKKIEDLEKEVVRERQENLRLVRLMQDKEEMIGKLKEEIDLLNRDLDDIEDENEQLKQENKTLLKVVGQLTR

Variants of: B1
Conditions: with pawr_human PAWR
Property name: effect of a mutation on the interaction

• Y120A = disrupting interaction
• V206A = disrupting interaction
